Biological target: BRM (Homo sapiens, UniProt P51531)
Construct: made in house; host or cells: High Five insect cells
Sequence (P51531 whole entry): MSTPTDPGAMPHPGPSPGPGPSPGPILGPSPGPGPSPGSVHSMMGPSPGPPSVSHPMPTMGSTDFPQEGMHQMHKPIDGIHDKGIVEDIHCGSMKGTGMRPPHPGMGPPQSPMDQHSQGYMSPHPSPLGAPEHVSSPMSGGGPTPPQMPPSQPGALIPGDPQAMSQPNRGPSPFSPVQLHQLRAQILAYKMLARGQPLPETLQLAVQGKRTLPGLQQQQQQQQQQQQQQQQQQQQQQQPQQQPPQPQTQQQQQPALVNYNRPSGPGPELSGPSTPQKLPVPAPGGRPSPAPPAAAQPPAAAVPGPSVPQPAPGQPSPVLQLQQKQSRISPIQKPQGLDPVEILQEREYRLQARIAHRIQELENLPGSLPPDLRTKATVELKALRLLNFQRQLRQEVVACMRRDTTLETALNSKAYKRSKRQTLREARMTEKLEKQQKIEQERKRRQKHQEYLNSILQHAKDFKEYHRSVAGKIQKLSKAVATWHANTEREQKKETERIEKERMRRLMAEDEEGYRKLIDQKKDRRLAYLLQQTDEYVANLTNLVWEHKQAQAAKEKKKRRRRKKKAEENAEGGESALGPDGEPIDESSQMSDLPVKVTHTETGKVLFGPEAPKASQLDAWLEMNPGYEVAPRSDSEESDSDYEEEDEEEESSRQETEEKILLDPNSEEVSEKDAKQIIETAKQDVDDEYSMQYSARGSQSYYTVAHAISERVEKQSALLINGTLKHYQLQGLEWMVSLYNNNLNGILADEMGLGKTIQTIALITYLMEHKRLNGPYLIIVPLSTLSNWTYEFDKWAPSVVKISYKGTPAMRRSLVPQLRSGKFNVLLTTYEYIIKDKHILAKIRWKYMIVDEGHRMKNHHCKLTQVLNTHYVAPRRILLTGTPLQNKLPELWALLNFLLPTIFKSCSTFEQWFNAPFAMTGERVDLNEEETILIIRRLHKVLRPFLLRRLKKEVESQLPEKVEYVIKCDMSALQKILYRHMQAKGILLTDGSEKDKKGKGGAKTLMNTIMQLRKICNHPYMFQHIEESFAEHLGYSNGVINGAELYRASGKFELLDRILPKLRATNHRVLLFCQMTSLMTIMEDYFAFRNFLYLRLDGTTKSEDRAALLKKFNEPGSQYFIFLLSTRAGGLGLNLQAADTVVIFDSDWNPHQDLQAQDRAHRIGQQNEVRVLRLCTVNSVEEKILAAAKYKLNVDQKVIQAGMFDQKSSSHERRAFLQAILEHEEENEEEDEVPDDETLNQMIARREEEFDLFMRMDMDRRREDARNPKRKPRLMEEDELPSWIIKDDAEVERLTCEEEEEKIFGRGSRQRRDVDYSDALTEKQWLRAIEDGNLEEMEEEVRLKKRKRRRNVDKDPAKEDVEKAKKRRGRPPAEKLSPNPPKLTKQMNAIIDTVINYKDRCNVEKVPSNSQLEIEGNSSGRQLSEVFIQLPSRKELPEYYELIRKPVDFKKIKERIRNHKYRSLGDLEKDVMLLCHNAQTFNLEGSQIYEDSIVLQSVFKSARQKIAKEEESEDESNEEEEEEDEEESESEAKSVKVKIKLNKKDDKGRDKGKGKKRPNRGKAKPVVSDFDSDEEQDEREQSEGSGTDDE
Assay: ATPase catalytic activity of BRM, ADP-Glo in vitro biochemical assay
Details: ADP-Glo ATPase assay, 30 nM BRM, 400 μM ATP
Procedure: The ATPase catalytic activity of BRM or BRG-1 was measured by an in vitro biochemical assay using ADP-Glo™ (Promega, V9102). The ADP-Glo™ kinase assay is performed in two steps once the reaction is complete. The first step is to deplete any unconsumed ATP in the reaction. The second step is to convert the reaction product ADP to ATP, which will be utilized by the luciferase to generate luminesce and be detected by a luminescence reader, such as Envision. […]
measured_attribute: IC50 (nM)

Below are worked cases with known answers.
O=C(NCc1cc2nc(N3CCc4cc(C(F)F)cnc43)ccc2cn1)c1ccc2c(c1)S(=O)(=O)CCOC2
43.6
O=C(NCc1cc2nc(N3CCCc4ccc(OC5CC5)nc43)ccc2cn1)c1ccc2c(c1)S(=O)(=O)CCOC2
22.2

I = Cc1ncc(C(=O)NCc2cc3nc(-c4cncc(C5CC5)n4)ccc3cn2)cc1S(C)(=O)=O
II = CS(=O)(=O)c1cc(C(=O)NCc2cc3nc(-c4cccc(C5CC5)n4)ccc3cn2)ccc1C#N
III = C[C@@H]1CN(c2cccc(-c3cnc4cnc(CNC(=O)c5ccc(Cl)c(S(C)(=O)=O)c5)cc4n3)n2)C[C@H](C)O1
IV = COCCN1CCOc2c(-c3ccc4cnc(CNC(=O)c5ccc(Cl)c(S(C)(=O)=O)c5)cc4n3)cccc21
Order the entries by their reported IC50, beginning at the minimum. Form entry: ranked labels (order as requested).
III, IV, I, II

---

Biological target: BRM (Homo sapiens, UniProt P51531)
Construct: made in house; host or cells: High Five insect cells
Assay: ATPase catalytic activity of BRM, ADP-Glo in vitro biochemical assay
Settings: ratio of BRG1 IC50 to BRM IC50
Description: The ATPase catalytic activity of BRM or BRG-1 was measured by an in vitro biochemical assay using ADP-Glo™ (Promega, V9102). The ADP-Glo™ kinase assay is performed in two steps once the reaction is complete. The first step is to deplete any unconsumed ATP in the reaction. The second step is to convert the reaction product ADP to ATP, which will be utilized by the luciferase to generate luminesce and be detected by a luminescence reader, such as Envision. […]
measured_attribute: Ratio*

O=C(NCc1cc2nc(-c3ccc(Cl)c(OC(F)F)n3)ccc2cn1)c1ccc2c(c1)S(=O)(=O)CCOC2 [Compound 327]
15.15
O=C(NCc1cc2nc(-c3cccc(N4CC(C5COC5)C4)n3)ccc2cn1)c1ccc2c(c1)S(=O)(=O)CCOC2 [Compound 604]
10.00
CCOc1cc(C)cc(-c2ccc3cnc(CNC(=O)c4ccc5c(c4)S(=O)(=O)[C@@H](C)COC5)cc3n2)n1 [Compound 417]
19.79
CO[C@@H]1CN(c2cccc(-c3ccc4cnc(CNC(=O)c5ccc6c(c5)S(=O)(=O)CCOC6)cc4n3)n2)C[C@H]1F [Compound 340]
13.96

a = O=C(NCc1cc2nc(-c3cccc(N4CCOCC(F)(F)C4)n3)ccc2cn1)c1ccc2c(c1)S(=O)(=O)CCOC2 [Compound 341]
b = COc1nc(C(F)F)ccc1-c1ccc2cnc(CNC(=O)c3ccc4c(c3)S(=O)(=O)CCOC4)cc2n1 [Compound 329]
c = C[C@H]1COCc2ccc(C(=O)NCc3cc4nc(-c5cccc([C@H]6CC6(F)F)n5)ccc4cn3)cc2S1(=O)=O [Compound 392]
Ordering criterion: Ratio*; begin with the maximum. Form entry: ranked labels (order as requested).
c, b, a
(c: 26.15, b: 15.19, a: 7.37)

---

molecular target: BRM (Homo sapiens, UniProt P51531); construct: made in house; host or cells: High Five insect cells; assay: ATPase catalytic activity of BRM, ADP-Glo in vitro biochemical assay; conditions: ratio of BRG1 IC50 to BRM IC50
measured_attribute: Ratio*

O=C(NCc1cc2nc(-c3cccc4c3CN(CC(F)F)CC4)ccc2cn1)c1ccc2c(c1)S(=O)(=O)CCOC2
5.66

1 = C[C@@H]1CN(c2cccc(-c3ccc4cnc(CNC(=O)c5cc(C(F)F)c6c(c5)S(=O)(=O)CCOC6)cc4n3)n2)C[C@H](C)O1
2 = CC1Cc2ccc(-c3ccc4cnc(CNC(=O)c5ccc6c(c5)S(=O)(=O)CCOC6)cc4n3)nc2N(C)C1 (centres unmarked)
Hi! Which is lower in terms of Ratio*, the first one 1 or the second one 2 ? The response must carry the label of the picked entry.
1
(1: 7.36, 2: 13.16)

---

target: BRM (Homo sapiens, UniProt P51531); construct: made in house; host or cells: High Five insect cells; assay: ATPase catalytic activity of BRM, ADP-Glo in vitro biochemical assay; conditions: ADP-Glo ATPase assay, 30 nM BRM, 400 μM ATP
measured_attribute: IC50 (nM)

O=C(NCc1cc2nc(N3CCOc4cc(F)c(C5CC5)nc43)ccc2cn1)c1ccc2c(c1)S(=O)(=O)CCOC2
36.2

1 = C[C@@H]1C[C@H]1c1ccc2c(n1)N(c1ccc3cnc(CNC(=O)c4ccc5c(c4)S(=O)(=O)CCOC5)cc3n1)CCO2
2 = O=C(NCc1cc2nc(N3CCCc4cnc(C5CC5)nc43)ccc2cn1)c1ccc2c(c1)S(=O)(=O)CCOC2
3 = Cc1cc2c(-c3ccc4cnc(CNC(=O)c5ccc(Cl)c(S(C)(=O)=O)c5)cc4n3)cccc2n1C
Ordering criterion: IC50; begin with the maximum. Form entry: ranked labels (order as requested).
3, 2, 1

---

target: BRM (Homo sapiens); construct: made in house; host or cells: High Five insect cells; experiment: ATPase catalytic activity of BRM, ADP-Glo in vitro biochemical assay; settings: ATPase catalytic activity, ADP-Glo; 30 nM BRM, 400 μM ATP
pIC50: −log10 of the molar value.
measured_attribute: pIC50

P = O=C(NCc1cc2nc(N3CCCc4ccc(C(F)F)cc43)ccc2cn1)c1ccc2c(c1)S(=O)(=O)CCOC2 [Compound 532]
Q = COc1cc2c(nc1C)N(c1ccc3cnc(CNC(=O)c4ccc5c(c4)S(=O)(=O)CCOC5)cc3n1)CCC2 [Compound 602]
R = C[C@@H]1CN(c2cccc(-c3ccc4cnc(CNC(=O)c5ccc6c(c5)S(=O)(=O)[C@H](C)CO[C@H]6C)cc4n3)n2)C[C@H](C)O1 [Compound 518]
S = C[C@H]1COCc2ncc(C(=O)NCc3cc4nc(-c5cccc(C6CC6)n5)ccc4cn3)cc2S1(=O)=O [Compound 452]
T = O=C(NCc1cc2nc(-c3cccc(C45COCC4C5)n3)ccc2cn1)c1ccc2c(c1)S(=O)(=O)CCOC2 (centres unmarked) [Compound 472]
Hi! Can you put these in order of pIC50, lowest number first? Form entry: ranked labels (order as requested).
R, S, T, Q, P
(R: 5.34, S: 7.36, T: 7.60, Q: 7.80, P: 8.19)

---

molecular target: BRM (Homo sapiens, UniProt P51531); construct: made in house; host or cells: High Five insect cells; test: ATPase catalytic activity of BRM, ADP-Glo in vitro biochemical assay; details: ratio BRG1 IC50 / BRM IC50
measured_attribute: Ratio*

Below are worked cases with known answers.
[2H]C1([2H])OC([2H])([2H])[C@@H](C)S(=O)(=O)c2cc(C(=O)NCc3cc4nc(-c5cccc(N6C[C@@H](C)O[C@@H](C)C6)n5)ccc4cn3)ccc21 [Compound 717]
5.61
COCCN(c1cccc(C2CC2)n1)c1ccc2cnc(CNC(=O)c3ccc4c(c3)S(=O)(=O)CCOC4)cc2n1 [Compound 840]
1.25
COc1cc(C2CC2)nc2c1CCCN2c1ccc2cnc(CNC(=O)c3ccc4c(c3)S(=O)(=O)CCOC4)cc2n1 [Compound 771]
16.35
O=C(NCc1cc2nc(N3CCCc4ccc(OCC5(F)COC5)cc43)ccc2cn1)c1ccc2c(c1)S(=O)(=O)CCOC2 [Compound 745]
6.27

1 = O=C(NCc1cc2nc(N3CCCc4ccc(C5CCC5)nc43)ccc2cn1)c1ccc2c(c1)S(=O)(=O)CCOC2 [Compound 730]
2 = O=C(NCc1cc2nc(N3CCn4ncc(C5CC5)c4C3)ccc2cn1)c1ccc2c(c1)S(=O)(=O)CCOC2 [Compound 744]
Hi! Which is lower in terms of Ratio*, the first one 1 or the second one 2 ? The response must carry the label of the picked entry.
2
(2: 9.13, 1: 49.65)

---

target: BRM (Homo sapiens, UniProt P51531); construct: made in house; host or cells: High Five insect cells; assay: ATPase catalytic activity of BRM, ADP-Glo in vitro biochemical assay; settings: selectivity ratio BRG1 IC50 / BRM IC50
measured_attribute: Ratio* (BRG1 IC50 (μM) divided by BRM IC50 (μM))

A = C[C@@H]1CN(c2ccc(F)c(-c3ccc4cnc(CNC(=O)c5ccc6c(c5)S(=O)(=O)CCOC6)cc4n3)n2)C[C@H](C)O1 [Compound 166]
B = O=C(NCc1cc2nc(N3CCc4cnccc4C3)ccc2cn1)c1ccc2c(c1)S(=O)(=O)CCOC2 [Compound 87]
So which one has the bigger Ratio* (BRG1 IC50 (μM) divided by BRM IC50 (μM)) here, A or B ? The response must carry the label of the picked entry.
A

A = CO[C@H]1C[C@H](c2cccc(-c3ccc4cnc(CNC(=O)c5ccc6c(c5)S(=O)(=O)CCOC6)cc4n3)n2)C1 [Compound 106]
B = CCN(CC)c1cccc(-c2ccc3cnc(CNC(=O)c4cc(F)c5c(c4)S(=O)(=O)CCOC5)cc3n2)n1 [Compound 62]
C = C[C@@H]1CN(c2cccc(-c3ccc4cnc([C@@H](C)NC(=O)c5ccc6c(c5)S(=O)(=O)CCOC6)cc4n3)n2)C[C@H](C)O1 [Compound 121]
D = Cc1c(Cl)cc(C(=O)NCc2cc3nc(-c4cncc(C5CC5)n4)ccc3cn2)cc1S(C)(=O)=O [Compound 269]
Order the entries by their reported Ratio* (BRG1 IC50 (μM) divided by BRM IC50 (μM)), beginning at the minimum. Form entry: ranked labels (order as requested).
C, A, B, D

I = O=C(NCc1cc2nc(-c3cccc(N4CC[C@@H](F)C4)n3)ccc2cn1)c1ccc2c(c1)S(=O)(=O)CCOC2 [Compound 222]
II = C[C@@H]1CN(c2cccc(-c3ccc4nnc(CNC(=O)c5ccc6c(c5)S(=O)(=O)CCOC6)cc4c3)n2)C[C@H](C)O1 [Compound 160]
So which one has the bigger Ratio* (BRG1 IC50 (μM) divided by BRM IC50 (μM)) here, I or II ? The response must carry the label of the picked entry.
I
